The reported measurements were obtained from the supplement of paper PMC9112550.

- Tested on: Escherichia coli TOP10
- assay_info: shrunken log2 fold change of peptide-encoding DNA abundance (4.5 h post-induction vs induction); higher = less antimicrobial activity (less host growth inhibition)
- condition_context: time post-induction: 4.5 h; library: site-saturation at positions 5, 18, 19, 20
assay_readout: shrunken log2 fold change
# output: bare number, no unit

Requested field: shrunken log2 fold change. Item: RRIRQRPPRLPRPRPRPVGCPRP
0.23

Same again, this time with RRIRLRPPRLPRPRPRPVRSPRP
0.53

Repeat with RRIRLRPPRLPRPRPRPNLFPRP
-0.0622

Then RRIRHRPPRLPRPRPRPGIQPRP ?
-0.277

Now the same for RRIRMRPPRLPRPRPRPHWWPRP
0.325

Same question, RRIRDRPPRLPRPRPRPRNGPRP this time
0.0517

Item: RRIRYRPPRLPRPRPRPKKTPRP
-0.0419

Also need RRIRCRPPRLPRPRPRPTNGPRP , thanks.
-0.0378

Ok, now RRIRTRPPRLPRPRPRPVTQPRP
0.0354

RRIRPRPPRLPRPRPRPACQPRP ?
0.22

# repeat for RRIRCRPPRLPRPRPRPVLAPRP
-0.0206

// repeat for RRIRQRPPRLPRPRPRPGYAPRP and report
0.0993

Would you kindly repeat that for RRIRARPPRLPRPRPRPLIRPRP ?
-0.0546

Consider next the sequence RRIRKRPPRLPRPRPRPSTTPRP in the same way.
0.162

Repeat with RRIRMRPPRLPRPRPRPTFEPRP
-0.0436

And RRIRDRPPRLPRPRPRPMRQPRP ?
0.0681

Ok, now RRIRVRPPRLPRPRPRPQPFPRP
-0.0258

Param item: RRIRCRPPRLPRPRPRPPWIPRP
-0.209

Try this sequence next: RRIRMRPPRLPRPRPRPWDTPRP
-0.0606

Please give the result for RRIRVRPPRLPRPRPRPSHWPRP too.
0.182

Param item: RRIRKRPPRLPRPRPRPSSYPRP
0.0295

Please answer likewise for RRIRPRPPRLPRPRPRPIKEPRP
-0.00478

Try this sequence next: RRIRKRPPRLPRPRPRPFEVPRP
-0.0185

Then this sequence: RRIRKRPPRLPRPRPRPTDTPRP
0.261

Record: RRIRWRPPRLPRPRPRPSLAPRP
0.428

Another sequence: RRIRTRPPRLPRPRPRPNPLPRP
-0.216

Further, for RRIRKRPPRLPRPRPRPHLKPRP ?
0.0906

Also RRIRLRPPRLPRPRPRPWKKPRP , if possible.
-0.279

Next record, please: RRIRMRPPRLPRPRPRPHIGPRP
-0.00118

And RRIRQRPPRLPRPRPRPKIWPRP ?
0.362

Same again, this time with RRIRERPPRLPRPRPRPGLVPRP
-0.061

Then RRIRTRPPRLPRPRPRPRFPPRP ?
0.115

Likewise for RRIRHRPPRLPRPRPRPYKWPRP ?
-0.0842

What about RRIRFRPPRLPRPRPRPTAQPRP ?
-0.00528

And RRIRMRPPRLPRPRPRPTVWPRP ?
0.736

Entry to check: RRIRCRPPRLPRPRPRPSIKPRP
-0.597

Check RRIRLRPPRLPRPRPRPACFPRP too.
0.259

Same lookup for RRIRWRPPRLPRPRPRPCTVPRP , please.
-0.438

Let us now turn to RRIRTRPPRLPRPRPRPFSHPRP
-0.399

Moving on to the next sequence: RRIRFRPPRLPRPRPRPVDFPRP
-0.452

Field entry: RRIRGRPPRLPRPRPRPHWAPRP
0.362

Record: RRIRARPPRLPRPRPRPEKKPRP
0.275

And RRIRARPPRLPRPRPRPDKPPRP ?
0.865

Try RRIRNRPPRLPRPRPRPSNLPRP next.
-0.457

Same question for RRIRHRPPRLPRPRPRPWVTPRP please.
0.0283

Next record, please: RRIRQRPPRLPRPRPRPVHWPRP
0.188

Moving on to the next sequence: RRIRDRPPRLPRPRPRPLLDPRP
0.17

How about RRIRKRPPRLPRPRPRPINRPRP ?
-0.159

Note, next up: RRIRSRPPRLPRPRPRPRSKPRP
0.0951

Request: RRIRWRPPRLPRPRPRPLCVPRP
0.0447

Similarly, RRIRVRPPRLPRPRPRPETIPRP ?
0.0608

Same for RRIRVRPPRLPRPRPRPFSTPRP
-0.496

* * *

- Tested on: Escherichia coli TOP10
- assay_info: shrunken log2 fold change of peptide-encoding DNA abundance (4.5 h post-induction vs induction); higher = less antimicrobial activity (less host growth inhibition)
- condition_context: time post-induction: 4.5 h; library: site-saturation at positions 5, 18, 19, 20
Exercise: for every item that follows, state its recorded shrunken log2 fold change.
// keep it numeric: no unit symbol after the value

Quick one: shrunken log2 fold change for RRIRHRPPRLPRPRPRPFTGPRP ?
-0.171

And RRIRFRPPRLPRPRPRPSAPPRP ?
-0.0675

Note, next up: RRIRHRPPRLPRPRPRPCPCPRP
-0.114

Similarly, RRIRVRPPRLPRPRPRPTSAPRP ?
0.0866

Continue with RRIRKRPPRLPRPRPRPPIDPRP
0.185

Another sequence to look at: RRIRKRPPRLPRPRPRPHPHPRP
2.25

What would you report for RRIRRRPPRLPRPRPRPDMLPRP ?
-0.0772

Please give the result for RRIRCRPPRLPRPRPRPQALPRP too.
0.0319

Same for RRIRTRPPRLPRPRPRPFKVPRP
0.0475

Same thing, different sequence: RRIRIRPPRLPRPRPRPLSHPRP
-0.0521

Field entry: RRIRYRPPRLPRPRPRPNILPRP
-1.9

Thanks! And RRIRYRPPRLPRPRPRPKMEPRP ?
-0.529

Please do the same for RRIRHRPPRLPRPRPRPTDNPRP as well.
-0.177

* * *

- Tested on: Escherichia coli TOP10
- assay_info: shrunken log2 fold change of peptide-encoding DNA abundance (4.5 h post-induction vs induction); higher = less antimicrobial activity (less host growth inhibition)
- condition_context: time post-induction: 4.5 h; library: site-saturation at positions 5, 18, 19, 20
// Condition not met strictly below -0.08 in shrunken log2 fold change; Condition met otherwise

# bool: shrunken log2 fold change of RRIRYRPPRLPRPRPRPVKHPRP >= -0.08
Condition not met

Check RRIRFRPPRLPRPRPRPWREPRP too.
Condition not met

Please answer likewise for RRIRCRPPRLPRPRPRPLGFPRP
Condition not met

And what about the sequence RRIRGRPPRLPRPRPRPSNVPRP ?
Condition met

* * *

Assignment: determine reported shrunken log2 fold change for the given sequences.
- Test system: Escherichia coli TOP10
- assay_info: shrunken log2 fold change of peptide-encoding DNA abundance (4.5 h post-induction vs induction); higher = less antimicrobial activity (less host growth inhibition)
- condition_context: time post-induction: 4.5 h; library: site-saturation at positions 5, 18, 19, 20
Answer with a bare number; do not write a unit.

// lookup shrunken log2 fold change for RRIRMRPPRLPRPRPRPRWSPRP
0.803

Now the same for RRIRLRPPRLPRPRPRPWCIPRP
0.0272

Also RRIRMRPPRLPRPRPRPVISPRP ?
-0.28

Also check RRIRQRPPRLPRPRPRPTRKPRP
-0.0205

* * *

- Test system: Escherichia coli TOP10
- assay_info: shrunken log2 fold change of peptide-encoding DNA abundance (4.5 h post-induction vs induction); higher = less antimicrobial activity (less host growth inhibition)
- condition_context: time post-induction: 4.5 h; library: site-saturation at positions 5, 18, 19, 20
assay_readout: shrunken log2 fold change
Keep it simple and answer with nothing but the number.

// map RRIRKRPPRLPRPRPRPVCSPRP to recorded shrunken log2 fold change (system: Escherichia coli TOP10)
0.0361

What do you get for RRIRRRPPRLPRPRPRPTWKPRP ?
0.112

Now the sequence RRIRMRPPRLPRPRPRPICNPRP
-0.0126

Now consider RRIRERPPRLPRPRPRPAPMPRP .
0.116

What do we get for RRIRDRPPRLPRPRPRPIIGPRP ?
-0.193

Next sequence up: RRIRERPPRLPRPRPRPTPAPRP
0.239

# repeat for RRIRGRPPRLPRPRPRPAAYPRP
0.929

Please do the same for RRIRHRPPRLPRPRPRPMYSPRP as well.
-0.263

Same thing, different sequence: RRIRGRPPRLPRPRPRPNWIPRP
-0.034

* * *

- Test system: Escherichia coli TOP10
- assay_info: shrunken log2 fold change of peptide-encoding DNA abundance (4.5 h post-induction vs induction); higher = less antimicrobial activity (less host growth inhibition)
- condition_context: time post-induction: 4.5 h; library: site-saturation at positions 5, 18, 19, 20
assay_readout: shrunken log2 fold change
Respond numerically, and do not add a unit to the figure.

# get_value(readout= shrunken log2 fold change, system= Escherichia coli TOP10) for RRIRKRPPRLPRPRPRPVKGPRP;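 further: peptides expressed intracellularly from a pBAD plasmid library in pooled LB shake-flask culture, induced with 0.3% L-arabinose, DNA abundance read by NGS, three biological replicates, DESeq2 with apeglm shrinkage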
0.322

And for RRIRQRPPRLPRPRPRPARPPRP ?
0.516

And RRIRFRPPRLPRPRPRPYEYPRP ?
-0.488

Subsequent entry: RRIRLRPPRLPRPRPRPYAGPRP
0.0235

Check RRIRSRPPRLPRPRPRPRVVPRP too.
0.245

Then this sequence: RRIRTRPPRLPRPRPRPWNFPRP
-0.0511

Please do the same for RRIRARPPRLPRPRPRPNCQPRP as well.
0.267

Note, next up: RRIRIRPPRLPRPRPRPITTPRP
-0.338

Would you mind doing RRIRRRPPRLPRPRPRPSFIPRP as well?
-0.391

Please do the same for RRIRWRPPRLPRPRPRPSRRPRP as well.
0.215

Another sequence: RRIRVRPPRLPRPRPRPGTCPRP
0.0803

Thanks! And RRIRVRPPRLPRPRPRPYWGPRP ?
-0.526

Likewise for RRIRERPPRLPRPRPRPDNTPRP ?
-0.489

Please answer likewise for RRIRYRPPRLPRPRPRPHIYPRP
-0.725

Request: RRIRFRPPRLPRPRPRPEQSPRP
0.0672

What do you have for RRIRIRPPRLPRPRPRPHCFPRP ?
-0.824

// next record RRIRVRPPRLPRPRPRPQQDPRP
0.151

And then RRIRPRPPRLPRPRPRPISRPRP , what is it?
0.121

Input RRIRQRPPRLPRPRPRPIHFPRP
-0.236

One more sequence: RRIRRRPPRLPRPRPRPFMQPRP
-0.0994

Another: RRIRQRPPRLPRPRPRPTQKPRP
0.0237

Now consider RRIRTRPPRLPRPRPRPTCDPRP and answer again.
0.0699

Similarly, RRIRTRPPRLPRPRPRPCYMPRP ?
-0.156

Try RRIRSRPPRLPRPRPRPEHDPRP next.
-0.128

Another sequence to check: RRIRRRPPRLPRPRPRPMPMPRP
0.0681

Further, for RRIRLRPPRLPRPRPRPWRMPRP ?
0.0332

Next sequence up: RRIRSRPPRLPRPRPRPVCDPRP
0.327

Similarly, RRIRRRPPRLPRPRPRPPTPPRP ?
0.769

Moving on to the next sequence: RRIRVRPPRLPRPRPRPCIDPRP
-0.106

Subsequent entry: RRIRWRPPRLPRPRPRPHVKPRP
-0.439

Next: RRIRPRPPRLPRPRPRPSPWPRP
0.0349

Moving on to the next sequence: RRIRNRPPRLPRPRPRPERYPRP
0.0573

Moving on to RRIRRRPPRLPRPRPRPNNGPRP
-0.277

Query RRIRARPPRLPRPRPRPWLTPRP next
0.0459

Please do the same for RRIRFRPPRLPRPRPRPTYHPRP as well.
-0.428

Also RRIRMRPPRLPRPRPRPRQSPRP , if possible.
0.982

Try RRIRSRPPRLPRPRPRPQCCPRP next.
-0.312

Please do the same for RRIRHRPPRLPRPRPRPSTKPRP as well.
-0.383

And the next one, RRIRGRPPRLPRPRPRPEGCPRP ?
1.65

How about RRIRERPPRLPRPRPRPQMQPRP ?
-0.173

// same read-out, input: RRIRNRPPRLPRPRPRPATLPRP
-0.365

And what about the sequence RRIRSRPPRLPRPRPRPKKLPRP ?
0.0709

Entry RRIRFRPPRLPRPRPRPLFSPRP please
-0.376

Same thing, different sequence: RRIRIRPPRLPRPRPRPQMHPRP
-0.494

Then RRIRSRPPRLPRPRPRPKCCPRP ?
-0.0585

Record: RRIRWRPPRLPRPRPRPQYNPRP
-0.554

Try RRIRFRPPRLPRPRPRPKWDPRP next.
0.117

Another sequence: RRIRNRPPRLPRPRPRPFDWPRP
0.0435

Cool, now RRIRKRPPRLPRPRPRPLPQPRP
0.729

Can you check RRIRSRPPRLPRPRPRPVMNPRP next?
0.0346

Same question for RRIRSRPPRLPRPRPRPHAYPRP please.
0.0215
